Kindly supply the reported Cream spreading (heavy) values for the records listed here.
# System: test subjects
# Method: cream temperature sense and usability/skin feel with scented cotton versus no aroma
# Assay type: in vivo, human
# Condition label: average, five-point scale 5 to 1

Use the examples below as a reference point.
Compound: COc1cc(C=O)ccc1O [C, vanillin]
Cream spreading (heavy): 3.1

Compound: CC1=CC(C)C(C=O)CC1 (stereo not shown) [E]
Cream spreading (heavy): 2.7

Report Cream spreading (heavy) for every entry below.
1. CC(C=O)Cc1ccc(C(C)(C)C)cc1 (stereo not shown) [B]
2. CCCCCCCC1CCC(=O)O1 (stereo not shown) [G, γ-undecalactone]

Data returned:
2.2
2.2

The reported measurements were obtained from patent US20100048686A1.
